Each recorded value in this set is attributed to patent US20010046987A1.

READOUT TYPE: melting point

Some molecules with recorded melting point:
MOLECULE | READOUT TYPE | TEST VALUE
CCC(=S)NCC1CN(c2ccc(C3CC[S+2]([O-])([N-]C(=O)OC)CC3)c(F)c2)C(=O)O1 (stereo not shown) | melting point | 217 to 218 °C
CCC(=S)NCC1CN(c2ccc(C3CC[S+2]([O-])([N-]C(=O)NC)CC3)c(F)c2)C(=O)O1 (stereo not shown) | melting point | 203 to 204 °C
CC[N-][S@+2]1([O-])CC[C@@H](c2ccc(N3C[C@H](CNC(=S)CC)OC3=O)cc2F)CC1 | melting point | 200 to 201 °C

For the next question, use this molecule.
Name the recorded melting point for `CCC(=S)NC[C@H]1CN(c2ccc([C@H]3CC[S@+2]([O-])([N-]CC(N)=O)CC3)c(F)c2)C(=O)O1` .
221 to 222 °C
